# system tested: Homeobox protein Hox-A13 (Mus musculus) (UniProt Q62424)
# Sequence (Q62424 whole entry, looked up): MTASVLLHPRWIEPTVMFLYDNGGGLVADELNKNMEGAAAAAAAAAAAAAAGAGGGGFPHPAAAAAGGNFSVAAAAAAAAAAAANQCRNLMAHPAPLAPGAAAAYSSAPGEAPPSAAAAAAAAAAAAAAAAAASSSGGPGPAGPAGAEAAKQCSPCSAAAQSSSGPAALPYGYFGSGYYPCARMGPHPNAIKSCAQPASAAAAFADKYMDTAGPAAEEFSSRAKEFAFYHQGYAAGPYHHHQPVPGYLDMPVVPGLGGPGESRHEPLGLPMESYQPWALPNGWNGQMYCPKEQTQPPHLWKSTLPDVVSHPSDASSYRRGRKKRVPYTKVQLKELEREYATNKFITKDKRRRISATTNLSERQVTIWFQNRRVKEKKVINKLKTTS
# method notes: disruptors of Hoxa13 oligonucleotide interaction – biochemical, fluorescence polarization, labeled oligonucleotide, primary screen (AID 1185)
# recorded conditions: Hoxa13:DNA binding, 15 min, higher = more signal, called active from +8 up or from −8 down
Classification field: 1 = z-score at or over -4; 0 = z-score under -4.

Does the reported z-score for `COCCCNC(=O)[C@@]1(Sc2ccc(C)cc2)CC(=O)N(Cc2ccccc2C(F)(F)F)[C@@H]1c1ccc(CO)cc1I` fall at or above the -4 mark?
1

Does the reported z-score for `COC(=O)[C@@]1(Cc2ccccc2)[C@H]2c3cc(C(=O)N(C)C)n(Cc4ccc(S(C)(=O)=O)cc4)c3C[C@H]2CN1C(=O)c1ccccc1` fall at or above the -4 mark?
0

Does the reported z-score for `C=CC[C@@]12N=C(c3ccc(OCCCO)cc3)O[C@@H]1c1ccccc1N(CCC)C2=O` fall at or above the -4 mark?
0

Does the reported z-score for `CC(C)N1C(=O)c2ccccc2[C@](C)(C(=O)NCC(F)(F)F)[C@@H]1c1ccc(CO)cc1` fall at or above the -4 mark?
1

Does the reported z-score for `COC(=O)[C@H](Cc1ccccc1)N1CC2=CCCC=C[C@@H]2[C@H]1[C@H](O)Cc1ccccc1` fall at or above the -4 mark?
0

Does the reported z-score for `CC(C)C(=C=CC[C@H](O)c1ccccc1OCCO)C[C@H](O)c1cc(Cl)cc(Cl)c1O` fall at or above the -4 mark?
0

Does the reported z-score for CC(C)=CCCC=C(C)C(O)C1C=CC2C(=O)N(c3ccccc3)C(=O)C2N1Nc1ccc(C#N)cc1 (stereo not drawn) fall at or above the -4 mark?
1

Does the reported z-score for [N-]=[N+]=Nc1ccccc1[C@H]1OC(c2ccc(OCCCO)cc2)=N[C@@]1(Cc1ccccc1)C(=O)NCC(O)CO (stereo partly drawn) fall at or above the -4 mark?
0

* * *

# method notes: FRG1 expression reporter modulators in myotubes – cell-based, C2C12 myotubes, firefly/Renilla luciferase, luminescence, FRG1 inhibition for FSHD, primary screen (AID 1084)
# recorded conditions: FRG1 promoter luciferase, higher = more signal, called active from +8 up or from −8 down
Each entry falls into one class according to its z-score; the ranges are low end (below -1), middle (-1 to below 0.6), high end (0.6 or more)

Assign a bin to `C=C1C(=O)C=C2CN(C(=O)c3ccccc3)[C@@](Cc3ccc(OC)cc3)(C(=O)OC)[C@@H]12`
high end

Assign a bin to `CCCNC(=O)[C@@]1(c2ccc([N+](=O)[O-])cc2)CC(=O)N(C(C)C)[C@@H]1c1ccc(CO)cc1`
middle

Assign a bin to `[N-]=[N+]=Nc1ccccc1C[C@@]1(C(=O)NCc2ccccc2)N=C(c2ccc(OCCCO)cc2)O[C@@H]1c1ccccc1N=[N+]=[N-]`
low end

Assign a bin to `O=C1C[C@@](C(=O)NCc2ccccc2)(c2ccc([N+](=O)[O-])cc2)[C@@H](c2ccc(CO)cc2)N1C1CCCCC1`
low end

Assign a bin to C[C@@H]1NC(=O)C([C@@H](C)OCc2ccccc2)NC(=O)[C@@]23C(=O)N[C@@H](Cc4ccccc4)C2[C@H](C)[C@@]2(C)O[C@H]2C3/C=C/C/C=C\CNC1=O (stereo partly specified)
middle

Assign a bin to `C=CCNC(=O)[C@H]1[C@@H]2C(=O)O[C@@H](c3ccccc3)[C@@H](c3ccccc3)N2[C@@H](c2ccc(OCCO)cc2)[C@]12C(=O)Nc1ccccc12`
low end

Assign a bin to COc1ccc(C(O)C2C=CC3C(=O)N(c4ccccc4)C(=O)C3N2Nc2ccc(C#N)cc2)cc1OCc1ccccc1 (stereo unspecified)
high end

Assign a bin to `COC(=O)[C@@]1(Cc2ccc(F)cc2)[C@H]2c3cc(C(=O)N4CCCC4)n(Cc4ccccn4)c3C[C@H]2CN1C(=O)c1ccccc1`
high end

Assign a bin to `CCCN1C(=O)[C@@]2(c3ccc([N+](=O)[O-])cc3)CC(=O)N(CC34CC5CC(CC(C5)C3)C4)[C@@H]2c2ccc(CO)cc21`
middle

* * *

# method notes: change in splice reporter luminescence, either direction, cell-based, HEK293, spliceosome inhibition project, primary screen (AID 1101);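 also: HEK293 cells carrying a splicing-competent luciferase reporter gene; test concentration not given here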
# recorded conditions: HEK293 splicing luciferase reporter, 24 h, higher = more signal, called active from +8 up or from −8 down
measurement kind: z-score
The answer should be written as a number, with no unit following it.

Identify z-score associated with the compound `CN(C)C(=O)[C@]1(Cc2ccccc2)N=C(c2ccc(OCCCO)cc2)O[C@@H]1c1ccccc1CN=[N+]=[N-]`
-0.741

Identify z-score associated with the compound `CC(=O)NCCCC[C@@H]1NC(=O)[C@H]2C[C@@H](C(=O)NCCCCCCNC(=O)CS)[C@@H](c3cccc(OCCO)c3)N2C1=O`
-0.662

Identify z-score associated with the compound C=CCC(OC(C)=O)[C@@H]1[C@@H](N(Cc2cc3ccccc3o2)C(=O)c2cccc3ccccc23)c2cc(OCCCO)ccc2N1C(=O)c1ccc2ccccc2n1 (stereo partly drawn)
-0.73

Identify z-score associated with the compound COC(=O)C1(Cc2ccccc2)C=C2C(=C(C)C(=O)C2C)CN1 (stereo not drawn)
1.44

Identify z-score associated with the compound `O=C1[C@H]2C=C(I)[C@H](C[C@@H]2OCCCCCCO)[C@@]12CO2`
0.0312

Identify z-score associated with the compound `Cc1ccc(S[C@]2(C(=O)NC3CC3)CC(=O)N(C(C)C)[C@@H]2c2ccc(CO)cc2I)cc1`
-1.89

Identify z-score associated with the compound `CCCCCCc1nc(Cc2cc(OC)c(OC)c(OC)c2)cc2c1[Si](C(C)C)(C(C)C)O[C@H]2c1ccccc1`
-0.189

Identify z-score associated with the compound `CCOC(=O)C1=CC[C@@H](c2ccc(OC)cc2)N(S(=O)(=O)c2ccc(C)cc2)[C@H]1CC`
-1.27

Identify z-score associated with the compound `COc1ccc([Si](C)(C)[C@@H]2[C@@H](CC(=O)N3CCC[C@H]3CO)O[C@]3(C(=O)N(Cc4ccc(N5CCOC5=O)cc4)c4ccccc43)[C@H]2C)cc1`
-1.58

Identify z-score associated with the compound `C=CC[C@@]1(C(=O)OC)N=C(c2ccc(OCCCO)cc2)O[C@@H]1c1ccccc1N=[N+]=[N-]`
-1.61

Identify z-score associated with the compound `O=C1O[C@@H](c2ccccc2)[C@@H](c2ccccc2)N2[C@@H](c3ccc(OCCO)cc3)[C@]3(C(=O)Nc4ccc(C#CCCO)cc43)[C@@H](C(=O)O)[C@H]12`
0.362

Identify z-score associated with the compound `CC(C)[Si](C#CCCc1ccccc1)(O[C@H](c1ccccc1)c1cn(Cc2ccccc2)nn1)C(C)C`
0.105

Identify z-score associated with the compound `COc1ccc(C(=O)Nc2ccc3c(c2)[C@@]2(O[C@H](CCO)[C@@H]([Si](C)(C)c4ccc(OC)cc4)[C@@H]2C)C(=O)N3Cc2ccccc2)cc1`
-4.86

Identify z-score associated with the compound `[N-]=[N+]=Nc1ccccc1C[C@@]1(C(=O)NCc2ccccc2)N=C(c2ccc(OCCCO)cc2)O[C@@H]1c1ccccc1N=[N+]=[N-]`
-0.457

Identify z-score associated with the compound `COc1ccc(C(=O)Nc2ccc(CN3C(=O)[C@@]4(O[C@@H](CCn5cc(CCO)nn5)[C@H]([Si](C)(C)c5ccc(OC)cc5)[C@H]4C)c4ccccc43)cc2)cc1`
-1.8

Identify z-score associated with the compound `COCCOC(=O)N1C(=O)[C@@]2(c3cc(C#CCC(C(=O)OC)C(=O)OC)ccc31)[C@H](C(=O)Nc1nc3ccccc3s1)[C@H]1C(=O)O[C@H](c3ccccc3)[C@H](c3ccccc3)N1[C@@H]2c1ccc(O)cc1`
-0.88

Identify z-score associated with the compound COc1ccc(C(O)C2C=CC3C(=O)NC(=O)C3N2Nc2ccc(Cl)cc2Cl)c2ccccc12 (stereo not drawn)
-0.744

Identify z-score associated with the compound C=CC1c2cc(O)c(OC)cc2CCN1C (stereo not drawn)
0.978

* * *

# method notes: binders from COS7 lysate, DM2A8 probe, primary screen, torsin A project, cell lysate, small-molecule microarray, fluorescence 635/667 (AID 1065)
# recorded conditions: higher = more signal, COS7 lysate expressing mutant human TOR1A
Classification field: criterion met = composite z-score at or over -0.2; criterion not met = composite z-score under -0.2.

Does the reported composite z-score for `O=C1O[C@H](c2ccccc2)[C@H](c2ccccc2)N2[C@H]1[C@@H](C(=O)N1CCN(c3ncccn3)CC1)[C@]1(C(=O)Nc3ccc(C#CCCO)cc31)[C@H]2c1ccc(O)cc1` fall at or above the -0.2 mark?
criterion met

Does the reported composite z-score for `COC(=O)[C@@]1(Cc2ccccc2)[C@H]2c3cc(C(=O)N(C)C)n(CCO)c3C[C@H]2CN1C(=O)c1ccccc1` fall at or above the -0.2 mark?
criterion met

Does the reported composite z-score for `CO[C@H]1O[C@H](CO)[C@@H](OC(=O)Nc2ccc3c(c2)OCO3)[C@H](OC(=O)Nc2ccccc2-c2ccccc2)[C@H]1OC(=O)Nc1ccccc1-c1ccccc1` fall at or above the -0.2 mark?
criterion met

Does the reported composite z-score for `CN(C)CCCNC(=O)[C@@H]1c2ccccc2C(=O)N(Cc2ccccc2C(F)(F)F)[C@H]1c1ccc(CO)cc1` fall at or above the -0.2 mark?
criterion not met

Does the reported composite z-score for CC(C)(C)N1CC=CC23O[C@@H]4/C=C\CCCOC(=O)C4[C@H]2C(=O)N(CCCO)[C@@H]3C1=O (stereo not given in full) fall at or above the -0.2 mark?
criterion not met
